Source listed as patent US9695155B2.

Reported Plant response rating, Corn values for the following compounds.
Tested on: corn
Assay method text: Test C postemergence
Format: in vivo, Zea mays
Measurement setup: Postemergence, 62 g ai/ha; scale 0 to 100 (0 no effect, 100 complete control)
Quantity measured: Plant response rating, Corn

INSERT INTO results (smiles_input, obs_value) VALUES
  ('Clc1cnc(Oc2cccc(Cl)c2-n2cc(I)cn2)nc1', 5),
  ('Fc1cccc(Oc2ncc(Cl)cn2)c1-n1cc(Cl)cn1', 10),
  ('Clc1cnc(Oc2cccc(Br)c2-n2cc(I)nn2)nc1', 5),
  ('O=Cc1cccc(Oc2ncc(I)cn2)c1-n1cc(Br)cn1', 0),
  ('N#Cc1cccc(Oc2ncc(Cl)cn2)c1-n1cc(Cl)cn1', 10);

====

System: blackgrass
Assay method text: Test C preemergence
Type: in vivo, Alopecurus myosuroides
Measurement setup: 125 g ai/ha, preemergence; scale 0 (no effect) to 100 (complete control)
Reported Blackgrass plant response rating values for the following compounds.
Quantity measured: Blackgrass plant response rating

INSERT INTO assay_data (compound, obs_value) VALUES
  ('FC(F)Oc1cnn(-c2c(Cl)cccc2Oc2ncc(Cl)cn2)c1 [Compound 258]', 90),
  ('N#Cc1cccc(Oc2ncc(Cl)cn2)c1-n1cc(OC(F)F)cn1 [Compound 97]', 90),
  ('N#Cc1cnn(-c2c(C#N)cccc2Oc2ncc(Cl)cn2)c1 [Compound 200]', 98),
  ('CC(C)c1cnn(-c2c(C#N)cccc2Oc2ncc(Cl)cn2)c1 [Compound 85]', 90);

====

Tested on: chickweed
Assay method text: Test C postemergence
Format: in vivo, Stellaria media
Measurement setup: Postemergence, 62 g ai/ha; scale 0 to 100 (0 no effect, 100 complete control); 13 to 15 days
Quantity measured: Plant response rating, Chickweed

INSERT INTO assay_data (smiles_input, quantity_measured, obs_value) VALUES
  ('FCc1cccc(Oc2ncc(Cl)cn2)c1-n1cc(I)cn1', 'Plant response rating, Chickweed', 80),
  ('Clc1cnc(Oc2ccccc2-n2cc(Br)nn2)nc1', 'Plant response rating, Chickweed', 50),
  ('N#Cc1cn(-c2c(C#N)cccc2Oc2ncc(Cl)cn2)nn1', 'Plant response rating, Chickweed', 35),
  ('Clc1cnc(Oc2cccc(Br)c2-n2cc(Cl)cn2)nc1', 'Plant response rating, Chickweed', 60);

====

Reported Beggarticks plant response rating values for the following molecules.
System: hairy beggarticks
Assay method text: Test E preemergence
Type: in vivo, Bidens pilosa
Measurement setup: 31 g ai/ha, preemergence, scale 0 to 100 (0 no effect, 100 complete control)
Quantity measured: Beggarticks plant response rating

INSERT INTO assay_data (smiles_input, quantity_measured, obs_value) VALUES
  ('NC(=S)c1cccc(Oc2ncc(Cl)cn2)c1-n1cc(Cl)cn1', 'Beggarticks plant response rating', 15),
  ('N#Cc1cnn(-c2c(C#N)cccc2Oc2ncc(Cl)cn2)c1', 'Beggarticks plant response rating', 10),
  ('Cc1cnc(Oc2cccc(C#N)c2-n2cc(C#N)cn2)nc1', 'Beggarticks plant response rating', 5),
  ('N#Cc1cccc(Oc2ncc(Cl)cn2)c1-n1cc(Cl)cn1', 'Beggarticks plant response rating', 0);

====

Reported Plant response rating, Velvetleaf values for the following molecules.
System: velvetleaf
Assay method text: Test A postemergence
Type: in vivo, Abutilon theophrasti
Measurement setup: 125 g ai/ha, 0 to 100 scale where 0 is no effect and 100 is complete control
Quantity measured: Plant response rating, Velvetleaf

INSERT INTO results (smiles_input, obs_value) VALUES
  ('COc1cccc(-n2cc(Br)cn2)c1Oc1ncc(Cl)cn1', 70),
  ('Fc1cnc(Oc2cccc(C(F)F)c2-n2cc(Cl)cn2)nc1', 90),
  ('Cc1cnc(Oc2cccc(C#N)c2-n2cc(Br)cn2)nc1', 80),
  ('FC(F)(F)c1cccc(Oc2ncc(Br)cn2)c1-n1cc(Br)cn1', 80),
  ('Clc1cnc(Oc2cc(Cl)ccc2-n2cccn2)nc1', 10),
  ('Cc1cccc(Oc2ncc(Br)cn2)c1-n1cc(Br)cn1', 100),
  ('Clc1ccc(-n2cccn2)c(Oc2ncc(Br)cn2)c1', 0),
  ('Cc1cccc(Oc2ncc(Cl)cn2)c1-n1cc(Br)cn1', 100),
  ('Clc1cnc(Oc2ccccc2-n2ccc(Br)n2)nc1', 50);

====

Test system: barnyardgrass
Assay method text: Test A preemergence
Format: in vivo, Echinochloa crus-galli
Measurement setup: 125 g ai/ha, 0 to 100 scale where 0 is no effect and 100 is complete control
Plant response rating, Barnyardgrass under 50 gets Satisfied, anything at or over 50 gets Not satisfied.

INSERT INTO assay_data (molecule, category) VALUES
  ('Brc1cnc(Oc2ccccc2-n2ccc(Br)n2)nc1 [Compound 20]', 'Satisfied'),
  ('Cc1cccc(Oc2ncc(Br)cn2)c1-n1cc(Br)cn1 [Compound 45]', 'Satisfied'),
  ('N#Cc1cnn(-c2ccccc2Oc2ncc(Cl)cn2)c1 [Compound 33]', 'Satisfied'),
  ('COc1cccc(-n2cc(Br)cn2)c1Oc1ncc(Cl)cn1 [Compound 41]', 'Satisfied'),
  ('N#Cc1cccc(Oc2ncc(Br)cn2)c1-n1cc(Cl)cn1 [Compound 71]', 'Not satisfied'),
  ('Clc1cnc(Oc2cccc(Br)c2-n2cc(I)nn2)nc1 [Compound 117]', 'Satisfied'),
  ('C=Cc1cnn(-c2ccccc2Oc2ncc(Cl)cn2)c1 [Compound 31]', 'Satisfied'),
  ('N#Cc1cccc(Oc2ncc(I)cn2)c1-n1cc(I)cn1 [Compound 87]', 'Satisfied'),
  ('COc1ccc(Oc2ncc(Br)cn2)c(-n2cc(Br)cn2)c1 [Compound 43]', 'Satisfied'),
  ('Fc1cnc(Oc2cccc(C(F)F)c2-n2cc(Cl)cn2)nc1 [Compound 94]', 'Not satisfied'),
  ('Cc1cnc(Oc2cccc(C#N)c2-n2cc(C#N)cn2)nc1 [Compound 90]', 'Not satisfied');

====

System: galium
Assay method text: Test C postemergence
Format: in vivo, Galium aparine
Measurement setup: 125 g ai/ha, postemergence; visual rating, scale 0 to 100 (0 no effect, 100 complete control)
Reported Plant response rating, Galium values for the following compounds.
Quantity measured: Plant response rating, Galium

INSERT INTO measurements (smiles_input, test_system, obs_value) VALUES
  ('Clc1cnc(Oc2cccc(Br)c2-n2cc(I)nn2)nc1', 'galium', 80),
  ('Fc1cnc(Oc2cccc(C(F)F)c2-n2cc(C(F)(F)F)cn2)nc1', 'galium', 65),
  ('N#Cc1cn(-c2c(C#N)cccc2Oc2ncc(Cl)cn2)nn1', 'galium', 80),
  ('Fc1cnc(Oc2ccccc2-n2cc(C(F)F)cn2)nc1', 'galium', 80);

====

System: wheat
Assay method text: Test A preemergence
Assay type: in vivo, Triticum aestivum
Measurement setup: 500 g ai/ha, 0 to 100 scale where 0 is no effect and 100 is complete control
Wheat plant response rating under 20 gets True, anything at or over 20 gets False.

INSERT INTO measurements (smiles_input, category) VALUES
  ('O=Cc1cccc(Oc2ncc(Cl)cn2)c1-n1cc(I)cn1', 'True'),
  ('Clc1cnc(Oc2ccccc2-n2cc(-c3ccccn3)cn2)nc1', 'True'),
  ('Clc1cnc(Oc2cccc(-c3cnoc3)c2-n2cc(Br)cn2)nc1', 'True'),
  ('Cc1cnc(Oc2cccc(C#N)c2-n2cc(C(F)(F)F)cn2)nc1', 'False'),
  ('Clc1cnc(Oc2cccc(Br)c2-n2cc(Cl)cn2)nc1', 'True'),
  ('CCOC(=O)c1cnn(-c2c(C#N)cccc2Oc2ncc(Br)cn2)c1', 'True'),
  ('N#Cc1cnn(-c2c(C#N)cccc2Oc2ncc(Cl)cn2)c1', 'False'),
  ('O=Cc1cccc(Oc2ncc(I)cn2)c1-n1cc(Br)cn1', 'True'),
  ('Fc1cnc(Oc2cccc(C(F)F)c2-n2cc(C(F)(F)F)cn2)nc1', 'False');

====

Reported Barnyardgrass plant response rating values for the following compounds.
Test system: barnyardgrass
Assay method text: Test C preemergence
Assay type: in vivo, Echinochloa crus-galli
Measurement setup: 62 g ai/ha, preemergence; scale 0 (no effect) to 100 (complete control)
Quantity measured: Barnyardgrass plant response rating

INSERT INTO assay_data (smiles_input, obs_value) VALUES
  ('Fc1cnc(Oc2cccc(C(F)F)c2-n2cc(Cl)cn2)nc1', 85),
  ('Cc1cnc(Oc2cccc(C#N)c2-n2cc(C#N)cn2)nc1', 75),
  ('N#Cc1cccc(Oc2ncc(Cl)cn2)c1-n1cc(OC(F)F)cn1', 100),
  ('N#Cc1cnn(-c2c(C#N)cccc2Oc2ncc(Br)cn2)c1', 60);

====

System: barnyardgrass
Assay method text: Test C flooded paddy test
Assay type: in vivo, Echinochloa crus-galli
Measurement setup: Flood, 250 g ai/ha; scale 0 to 100 (0 no effect, 100 complete control), 13 to 15 days
Quantity measured: Plant response rating, Barnyardgrass

INSERT INTO assay_data (smiles_input, quantity_measured, obs_value) VALUES
  ('FC(F)c1cnn(-c2ccccc2Oc2ncc(Cl)cn2)c1', 'Plant response rating, Barnyardgrass', 0),
  ('N#Cc1cccc(Oc2ncc(Cl)cn2)c1-n1cc(OC(F)F)cn1', 'Plant response rating, Barnyardgrass', 0),
  ('Fc1cccc(Oc2ncc(Cl)cn2)c1-n1cc(Cl)cn1', 'Plant response rating, Barnyardgrass', 0),
  ('Fc1cccc(Oc2ncc(Cl)cn2)c1-n1cc(C(F)F)nn1', 'Plant response rating, Barnyardgrass', 20);
